protocol description: Determination of compound Cmax and AUC after oral gavage (plasma LC-MS/MS)
Format: in vivo, Sprague-Dawley rats
run conditions: Sprague-Dawley, rat, plasma, po, Structure (I) examples, Table 15, actual oral dose 3-15 mg/kg, plasma 0.5-4 h
Method: Sprague-Dawley rats were orally gavaged with test article at a nominal dose of 2.5 or 10 mg/kg and blood was collected at 0.5, 1, 2 and 4 h. Blood samples were processed to plasma using K2EDTA as an anticoaglulant. […] Supernatants were analyzed by LC-MS/MS and compound concentrations were determined by interpolation from a standard curve prepared in plasma. All compounds were orally dosed at the dosage shown, and pharmacokinetic parameters determined. […]
reported endpoint: Cmax

Here are 5 compounds together with their reported answers.
item smiles	Cmax
O=C(O)CCSCc1cccc(C(=O)Nc2ccc(N3CCCCC3)cc2-c2cc(C(=O)NCc3cccc(C(F)(F)F)c3)ccn2)c1	< 50 ng/mL
CN(CCOCCOCCOCCC(=O)O)C(=O)c1cccc(C(=O)Nc2ccc(Cl)cc2-c2cc(C(=O)NCc3cccc(C(F)(F)F)c3)ccn2)c1	< 10 ng/mL
O=C(O)CCOCCOCCOCCOCCSCc1cccc(C(=O)Nc2ccc(N3CCCCC3)cc2-c2cc(C(=O)N[C@H]3CCCc4ccccc43)ccn2)c1	< 10 ng/mL
COCCOCCOCCOCCOCCOCCOCCN(C)C(=O)[C@H]1CCCN(C(=O)c2cccc(C(=O)Nc3ccc(N4CCCCC4)cc3-c3cc(C(=O)N[C@H]4CCCc5ccccc54)ccn3)c2)C1	< 10 ng/mL
COCCOCCOCCOCCOCCOCCOCCOCCNC(=O)CCOCCOCCOCCOCCSCc1cccc(C(=O)Nc2ccc(N3CCCCC3)cc2-c2cc(C(=O)NCc3cccc(C(F)(F)F)c3)ccn2)c1	< 10 ng/mL

Request: Could you tell me which Cmax is on file for `CCN(CC)c1ccc(NC(=O)c2cccc(CSCCOCCOCCOCCOCCOCCOCCOCCOC)c2)c(-c2cc(C(=O)NCc3cccc(C(F)(F)F)c3)ccn2)c1` ?
Response: < 30 ng/mL

Request: Next entry: `CN(CCN1CCCC[C@H]1C(=O)N(C)CCOCCOCCOCCC(=O)OC(C)(C)C)C(=O)c1cccc(C(=O)Nc2ccc(N3CCCCC3)cc2-c2cc(C(=O)N[C@H]3CCCc4ccccc43)ccn2)c1`
Response: < 10 ng/mL

Request: Next entry: `CCN(CC)c1ccc(NC(=O)c2cccc(CSc3cccc(CC(=O)N(C)CCOCCOCCOCCC(=O)O)c3)c2)c(-c2cc(C(=O)NCc3cccc(C(F)(F)F)c3)ccn2)c1`
Response: < 10 ng/mL

====

assay target: rat NaP2b (SLC34A2) (Rattus norvegicus, UniProt Q9JJ09)
Construct: host or cells: HEK293
Sequence (Q9JJ09 whole entry): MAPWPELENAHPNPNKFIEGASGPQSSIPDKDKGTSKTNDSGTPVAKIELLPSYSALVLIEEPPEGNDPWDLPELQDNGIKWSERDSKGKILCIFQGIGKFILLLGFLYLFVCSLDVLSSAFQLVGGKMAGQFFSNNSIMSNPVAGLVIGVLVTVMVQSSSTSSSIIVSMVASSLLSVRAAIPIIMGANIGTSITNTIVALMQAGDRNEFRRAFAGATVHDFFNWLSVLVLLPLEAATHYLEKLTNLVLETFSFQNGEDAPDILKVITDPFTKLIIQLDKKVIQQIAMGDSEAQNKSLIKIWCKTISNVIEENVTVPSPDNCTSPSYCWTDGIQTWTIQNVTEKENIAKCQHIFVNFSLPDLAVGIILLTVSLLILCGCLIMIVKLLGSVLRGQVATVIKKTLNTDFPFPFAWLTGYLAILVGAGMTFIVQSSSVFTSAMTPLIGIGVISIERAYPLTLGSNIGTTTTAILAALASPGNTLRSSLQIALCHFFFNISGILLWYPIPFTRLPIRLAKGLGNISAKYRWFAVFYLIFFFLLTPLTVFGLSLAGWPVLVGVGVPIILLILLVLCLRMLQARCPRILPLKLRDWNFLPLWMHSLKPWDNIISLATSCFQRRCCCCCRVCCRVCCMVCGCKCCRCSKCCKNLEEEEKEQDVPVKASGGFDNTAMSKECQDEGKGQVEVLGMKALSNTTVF
protocol description: NaP2b-mediated Pi transport (33P uptake) in transfected HEK293 cells, rat NaP2b
Assay type: cell-based
run conditions: Structure (V) examples, Table 2; rat NaP2b, HEK293; read-out: pIC50 Range (converted)
reported endpoint: IC50

Here are 5 molecules together with their reported answers.
molecule	IC50
O=C(Nc1ccc(N2CCCCC2)cc1C(=O)N/N=C/c1ccc(Cl)c(C(F)(F)F)c1)c1cccc(Cn2cc(CCOCCOCCOCCNC(=O)C(O)C(O)C(=O)O)nn2)c1 (stereo not shown)	10000 to 100000 nM
O=C(O)CNC(=O)CCSCc1cccc(C(=O)Nc2ccc(N3CCCCC3)cc2C(=O)N/N=C/c2ccc(Cl)c(C(F)(F)F)c2)c1	100 to 794 nM
NCCOCCOCCOCCc1cn(Cc2cccc(C(=O)Nc3ccc(N4CCCCC4)cc3C(=O)N/N=C/c3ccc(Cl)c(C(F)(F)F)c3)c2)nn1	1000 to 7940 nM
[N-]=[N+]=NCCOCCOCCOCCNCc1cccc(C(=O)Nc2ccc(N3CCCCC3)cc2C(=O)N/N=C/c2ccc(Cl)c(C(F)(F)F)c2)c1	100 to 794 nM
O=C(O)CCOCCOCCOCCOCCOCCOCCOCCOCCSCc1cccc(C(=O)Nc2ccc(Cl)cc2C(=O)N/N=C/c2ccc(Cl)c(C(F)(F)F)c2)c1	100 to 794 nM

Request: Could you tell me which IC50 is on file for NC(Cc1cn(Cc2cccc(C(=O)Nc3ccc(N4CCCCC4)cc3C(=O)N/N=C/c3ccc(Cl)c(C(F)(F)F)c3)c2)nn1)C(=O)O (stereo not shown) ?
Response: 1000 to 7940 nM

Request: Next entry: `COCCNC(=O)CCSCc1cccc(C(=O)Nc2ccc(N3CCCCC3)cc2C(=O)N/N=C/c2ccc(Cl)c(C(F)(F)F)c2)c1`
Response: 100 to 794 nM

Reference for the values: patent US20140023611A1
